Test system: NCI-H322M lung
Test: NCI-60 one-dose screen, 48 h
Conditions: 10 µM unless noted
This is part of a sample that, as a whole, favours compounds with a hit. Of some 83,000 tested, about 20% had one in any assay. The source made the active and inactive calls. How the source made its calls: active means growth percent below 10; inactive means the rest.
The reply should name one outcome from active, inactive

A selection of reference data follows.
- compound: "N/C(=N\\OC(=O)c1ccccc1)C(Cc1ccccc1)C(=O)NOC(=O)c1ccccc1 (configuration not stated)"
  assigned.label: "inactive"
- compound: "CCOC(=O)c1ccc(NC(=O)CSC(N)=O)cc1"
  assigned.label: "inactive"
- compound: "COc1ccc(-c2cnnn2-c2nonc2-n2cccc2)cc1"
  assigned.label: "inactive"
- compound: "Cc1ccsc1C(=O)CC(=O)C(F)(F)C(F)(F)C(F)(F)F"
  assigned.label: "inactive"
- compound: "COc1cc(C2CC(c3ccccc3)=NN2C=O)ccc1Oc1nc2c(c(=O)n(C)c(=O)n2C)n1C (configuration not stated)"
  assigned.label: "inactive"
- compound: "Cc1c(C(=O)CCl)c(=O)n(-c2ccccc2)n1C"
  assigned.label: "inactive"
- compound: "O=C(CSc1nc2c(n1Nc1ccccc1)-c1ccccc1SC2)Nc1nccs1"
  assigned.label: "inactive"
- compound: "COc1cc(/C=C/c2cc(/C=C/c3ccc(O)c(OC)c3)n(C(=O)Nc3ccc(F)c(Cl)c3)n2)ccc1O"
  assigned.label: "inactive"
- compound: "CC(C)c1cccc(C#N)c1"
  assigned.label: "inactive"
- compound: "Cc1cc2nc(CN)[nH]c2cc1C"
  assigned.label: "inactive"

Request: Could you please tell me the result logged for `CCc1c(C)c2ccc(O)c(-c3cc(-c4ccccc4)c(C#N)c(=O)[nH]3)c2oc1=O` in this assay?
Result: inactive

Request: Could you please tell me the result logged for `COc1ccc(-c2cc(-c3ccc(OC)cc3)c3sc(=O)[nH]c3n2)cc1` in this assay?
Result: inactive

Request: Could you please tell me the result logged for CC1OC(n2c3ccccc3c3c4c(c5c6ccccc6[nH]c5c32)C(=O)N(CCN2CCOCC2)C4=O)CC(O)C1O (configuration not stated) in this assay?
Result: inactive

Request: Could you please tell me the result logged for `COc1cc(/C=C\c2cc(/C=C\c3ccc(O)c(OC)c3)n(C(=O)Nc3ccc(C(F)(F)F)cc3)n2)ccc1O` in this assay?
Result: inactive

Request: Could you please tell me the result logged for `O=S(=O)(Nc1ccc2ccccc2c1)N1CCCCC1` in this assay?
Result: inactive

* * *

System: SF-295 CNS
Assay: NCI-60 one-dose screen, 48 h (100 = growth as untreated, 0 = no growth, -100 = all killed)
Conditions: 10 µM unless noted
Compounds without any hit were thinned out: in the full panel of roughly 83,000, 20% have a hit.
The label depends only on growth: 1 if it is at least 20%, -1 if it is smaller.

- molecule: "COc1ccc(Nc2nc(N)nc3c(=O)[nH]ccc23)cc1"
  assigned.label: 1
- molecule: "CCN(CC)c1ccc(/C=C2/NC(=O)NC2=O)cc1"
  assigned.label: 1
- molecule: "C=CCN1C(=O)/C(=c2\\sc3n(c2=O)C2C(NN=3)N(CC)C(=O)N2CC)c2ccccc21 (stereo unspecified)"
  assigned.label: -1
- molecule: "CCCCSc1ncnc2c1ncn2C1CCCCO1 (stereo unspecified)"
  assigned.label: 1

Request: growth >= 20% for `O/N=C1\c2ccccc2-c2ccc(Br)cc21` ?
Result: 1

Request: growth >= 20% for `CCCCCCCCCCCC1=NC(C)(C)CN1C(C)C` ?
Result: 1

* * *

Quick reference: growth of the listed items.
Test system: HCT-15 colon
Test: NCI-60 one-dose screen, 48 h (100 = growth as untreated, 0 = no growth, -100 = all killed)
Settings: 10 µM unless noted
The panel holds about 83,000 compounds, 20% with a hit somewhere; the sample as a whole holds those more often.
Answer in %, number only, no unit symbol.

Some entries whose results are on file:
- molecule: "COc1ccc(C2=NNC(c3ccc(Oc4nc5c(c(=O)n(C)c(=O)n5C)n4C)c(OC)c3)C2)cc1 (stereo not given)"
  growth (%): 93.8
- molecule: "CN1C(=O)N(C)C2C1NN=c1s/c(=C\\c3ccc(C(F)(F)F)cc3)c(=O)n12 (stereo not given)"
  growth (%): 24.2
- molecule: "CCOC(=O)c1ccc(NC(=O)CSC(N)=O)cc1"
  growth (%): 99.4
- molecule: "COc1cc(C2C(C#N)=C(N)Oc3cc4c(cc32)OCO4)cc2c1OCO2 (stereo not given)"
  growth (%): 21.5

Request: // growth lookup, key: `COc1ccc(Oc2nc(Nc3ccc(N4CCOCC4)cc3)ncc2NC(=O)Nc2cccc(OC)c2)cc1`
Result: 84

Request: // growth lookup, key: `O=C(Nc1cccc(N=Cc2c(O)ccc3ccccc23)c1)c1ccccc1`
Result: 93.6

Request: // growth lookup, key: `C=CCCCCOc1cccc(/C=C2\N=C3SCCCN3C2=O)c1`
Result: 90

Request: // growth lookup, key: `O=C(CCl)N1c2ccccc2Oc2ccc3ccccc3c21`
Result: -81.1

Request: // growth lookup, key: CC(=O)C1CCC2C3CC(C)=C4CC(O)CCC4(C)C3CCC12C (stereo not given)
Result: 100

Request: // growth lookup, key: `COc1ccc(-c2ccc(-c3ccc(C(=N)N)s3)s2)cc1`
Result: -73.7

* * *

Tested on: MOLT-4 leukemia
Assay: NCI-60 one-dose screen, 48 h (100 = growth as untreated, 0 = no growth, -100 = all killed)
Conditions: 10 µM unless noted
About 83,000 compounds went through this panel and 20% of them were active in at least one assay; those are over-represented in the sample as a whole.
quantity.measured: growth (%)
Answer in %, number only, no unit symbol.

Some entries whose results are on file:
- compound: "Cc1ccccc1C1CC(=O)c2ccccc2C1C (stereo unspecified)"
  quantity.measured: "growth"
  measured: 93.5
- compound: "O=C(CSc1nnc(Cc2ccccc2Nc2c(Cl)cccc2Cl)n1-c1ccccc1)N1N=C(c2ccc3ccccc3c2)CC1c1ccc(Cl)cc1 (stereo unspecified)"
  quantity.measured: "growth"
  measured: 98.4
- compound: "CC1=C(/C=C/C(C)=C/C=C(C(=O)O)\\C(C)=C\\C(=O)O)C(C)(C)CCC1"
  quantity.measured: "growth"
  measured: 86.3
- compound: "N/N=C(\\C(=N\\N)c1ccccc1)c1ccccc1"
  quantity.measured: "growth"
  measured: 81.2
- compound: "CN(C)c1nc(-c2cccs2)n2nc(-c3ccco3)cc2n1"
  quantity.measured: "growth"
  measured: 97

Here is the next item to consider.
Request: // growth lookup, key: `CCOC(=O)c1cc(N)nc2ccccc12`
Result: 100

* * *

Tested on: NCI/ADR-RES ovarian
Experiment: NCI-60 one-dose screen, 48 h (100 = growth as untreated, 0 = no growth, -100 = all killed)
Details: 10 µM unless noted
About 83,000 compounds went through this panel and 20% of them were active in at least one assay; those are over-represented in the sample as a whole.
Quick reference: growth of the listed items.
Answer in %, number only, no unit symbol.

Some entries whose results are on file:
- compound: "CN(C)CC(=O)c1ccc2cc(Br)c3ccccc3c2c1"
  growth (%): 72.8
- compound: "CC(C)CCC(=O)[C@@H](C)[C@H]1[C@@H](OC2OCC(O)C(O)C2NS(C)(=O)=O)C[C@H]2[C@@H]3CC=C4C[C@@H](O)CC[C@]4(C)[C@H]3CC[C@]12C (stereo partly drawn)"
  growth (%): 82.7
- compound: "O=C(CSc1nc2c(n1Nc1ccccc1)-c1ccccc1SC2)Nc1nccs1"
  growth (%): 90.4
- compound: "O=C(CCl)Nc1ccc2c(c1)C(=O)c1ccccc1C2=O"
  growth (%): 14.2
- compound: "CC[C@]1(O)C[C@H]2CN(CCc3c([nH]c4ccccc34)C(C(=O)OC)(c3cc4c(cc3OC)N(C)[C@H]3[C@@](O)(C(=O)OC)[C@H](OC(C)=O)[C@]5(CC)[C@@H]6C[C@@H]6CN6CC[C@]43[C@@H]65)C2)C1 (stereo partly drawn)"
  growth (%): -3.99
- compound: "COc1ccccc1CNCCCN1C(=O)c2ccc3c4c(ccc(c24)C1=O)C(=O)N(CCCCNCCCN)C3=O"
  growth (%): 72.6
- compound: "O=C1/C=C/[C@@H](O)[C@@H]2C[C@@H](O)C[C@H]2/C=C/CCC[C@H]([C@@H](O)CO)O1"
  growth (%): 90.1

Here is the next item to consider.
Request: // growth lookup, key: `c1csc(-c2cnc3nonc3n2)c1`
Result: 95

* * *

Test system: SR leukemia
Assay: NCI-60 one-dose screen, 48 h (100 = growth as untreated, 0 = no growth, -100 = all killed)
Settings: 10 µM unless noted
The panel holds about 83,000 compounds, 20% with a hit somewhere; the sample as a whole holds those more often.
We label by threshold. Values of growth strictly beneath 10% are rule met. Values of 10% and up are rule not met.

Request: Identify whether the molecule CCN1C(=O)N(CC)C2C1NN=c1s/c(=C\c3ccc(Br)cc3)c(=O)n12 (stereo not given) records growth below 10%.
Result: rule not met

Request: Identify whether the molecule CC(=O)OC[C@H]1O[C@@H](n2c(=O)cc(N)[nH]c2=O)C(OC(C)=O)[C@@H]1OC(C)=O (stereo not given in full) records growth below 10%.
Result: rule not met

Request: Identify whether the molecule `CC(C)(C)c1cc(C[P+](c2ccccc2)(c2ccccc2)c2ccccc2)cc(C(C)(C)C)c1O` records growth below 10%.
Result: rule met

Request: Identify whether the molecule `C=C1C(=O)O[C@H]2[C@H]1CC/C(COC(=O)NCc1cccc(OC)c1)=C\CC[C@@]1(C)O[C@@H]21` records growth below 10%.
Result: rule met

Request: Identify whether the molecule `c1ccc(-c2ccc(-c3ccccc3)[nH]2)cc1` records growth below 10%.
Result: rule not met
